Tested on: Mus musculus
Test: Antiinflammatory activity against TPA-induced ear edema in mouse at 0.5 mg/ear topically
Format: functional
Activity calls are given as the source filed them. No cut-off for these calls is given here.
quantity: Activity

The following compounds have reported results that may help.
{"compound": "C=C(CO[C@@H]1O[C@H](CO)[C@@H](O)[C@H](O)[C@H]1O)[C@@H]1Cc2cc(C(C)=O)ccc2O1", "Activity": "inactive"}
{"compound": "C=C(CO)[C@@H]1Cc2cc(C(C)=O)ccc2O1", "Activity": "50%"}
{"compound": "Cc1occc(=O)c1O[C@@H]1O[C@H](CO)[C@@H](O)[C@H](O)[C@H]1O", "Activity": "inactive"}
{"compound": "C=C(C)C(O)Cc1cc(C(C)=O)ccc1O (configuration not stated)", "Activity": "68%"}

Please state recorded Activity (tested on Mus musculus) of `CC(=O)c1ccc(O[C@@H]2O[C@H](CO)[C@@H](O)[C@H](O)[C@H]2O)c(CCO)c1`
inactive

Item `CC(=O)c1ccc(O)c(CC=C(C)C)c1` with Mus musculus - Activity?
inactive

API: value(readout= Activity, system= Mus musculus, query= `CC(=O)c1ccc(O[C@@H]2O[C@H](CO)[C@@H](O)[C@H](O)[C@H]2O)c(CC=C(C)C)c1` )
inactive
